All figures here come from patent US20100254993A1.

Biological target: T1, recombinant human interleukin-4 (human, UniProt P05112 25-153)
T1 sequence (looked up): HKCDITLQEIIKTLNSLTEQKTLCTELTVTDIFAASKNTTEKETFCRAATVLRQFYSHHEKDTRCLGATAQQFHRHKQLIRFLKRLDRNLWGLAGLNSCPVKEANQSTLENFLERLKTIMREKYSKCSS
Assay: cell-based or functional assay
readoutKind: IL-4 induced CD23 IC50 (nM)
Write the answer as a number in nM, unit excluded.

Memo: Example 2 antibody comprising SEQ ID NO:9 and SEQ ID NO:10 (antibody, human IgG1, V domains shown, also called Ex. 2) VH: QVQLVESGGGVVQPGRSLRLSCAASGFTLSSFGMHWVRQAPGKGLEWVAVIWYDGSNEYYADSVKGRFTTSRDNSKNTLYLQMNSLRAEDTAVYYCAREGSWSPDIFDIWGQGTMVTVSS VL: AIQLTQSPSSLSASVGDRVTITCRTSQGIRSALAWYQQNPGKAPKLLIYDASSLESGVPSRFSGSGSGTDFTLTISSLQPEDFATYYCQQFNSYPVTFGQGTRLEIKR , reported IL-4 induced CD23 IC50: 0.463
